# Assay details: Cytotoxicity, MTT reduction method, COS-7
# Format: cell-based
# Study conditions: monkey, COS-7 cells

Molecule: O=C1Nc2ccccc2C1=Cc1ccc[nH]1 [(3)]
Unit text: µM
CC50 at 72 h: 32.8

----------
# Assay details: Cytotoxicity, MTT reduction method, HepG2
# Format: cell-based
# Study conditions: human, HepG2 cells

Smiles record: O=C1Nc2ccccc2C1=Cc1ccc[nH]1
Unit text: µM
CC50 at 72 h: 13.5
